// data source = paper PMC10726354

- Tested on: PC3 PD-L1-overexpressing tumor
- EXPERIMENT NOTES: Small-animal PET, uptake in PD-L1-overexpressing tumor
- CONDITION SET: 24.5 (24–25) hours p.i.; blocker i.v. before tracer: Cu-1 100 nmol 1, Cu-2 100 nmol 2, Cu-3 1000 nmol 4, Cu-4 500 nmol 4, Cu-6 250 nmol 1 (~5 min prior), Cu-5 100 nmol 5 (~30 min prior)
MEASURED METRIC: SUVmax PC3 PD-L1 overexpressing tumor +block
The response must contain the number and no unit.

[[record]]
compound = "Cc1c(COc2cc(OCc3cncc(S(C)(=O)=O)c3)c(CN[C@@H](CS(=O)(=O)O)C(=O)NCCP(=O)(O)O)cc2Cl)cccc1-c1cccc(OCc2cn(CCCN3CCN(C(=O)[C@H](CP(=O)(O)O)NC(=O)CC[C@H](C(=O)O)N4CCN(CC(=O)O)CCN(CC(=O)O)CC4)CC3)nn2)c1C.[64Cu+2] [[^64Cu]Cu-6]"
numeric_result = 2.3

[[record]]
compound = "Cc1c(COc2cc(OCc3cncc(S(C)(=O)=O)c3)c(CN[C@@H](CS(=O)(=O)O)C(=O)NCCP(=O)(O)O)cc2Cl)cccc1-c1cccc(OCc2cn(CCCN3CCN(C(=O)[C@H](CS(=O)(=O)O)NC(=O)CC[C@H](C(=O)O)N4CCN(CC(=O)O)CCN(CC(=O)O)CC4)CC3)nn2)c1C.[64Cu+2] [[^64Cu]Cu-5]"
numeric_result = 1.55


Task: Please list SUVmax PC3 PD-L1 overexpressing tumor +block recorded for the compound Cc1c(COc2cc(OCc3cncc(C#N)c3)c(CN[C@@H](CS(=O)(=O)O)C(=O)NCCS(=O)(=O)O)cc2Cl)cccc1-c1cccc(OCc2cn(CCCN3CCN(C(=O)[C@H](CS(=O)(=O)O)NC(=O)CC[C@H](C(=O)O)N4CCN(CC(=O)O)CCN(CC(=O)O)CC4)CC3)nn2)c1C.[64Cu+2] [[^64Cu]Cu-1]
Result: 1.1

Task: Please list SUVmax PC3 PD-L1 overexpressing tumor +block recorded for the compound Cc1c(COc2cc(OCc3cncc(S(C)(=O)=O)c3)c(CN[C@@H](CS(=O)(=O)O)C(=O)NCCS(=O)(=O)O)cc2Cl)cccc1-c1cccc(OCc2cn(CCCN3CCN(C(=O)[C@H](CS(=O)(=O)O)NC(=O)CC[C@H](C(=O)O)N4CCN(CC(=O)O)CCN(CC(=O)O)CC4)CC3)nn2)c1C.[64Cu+2] [[^64Cu]Cu-3]
Result: 0.65

Task: Please list SUVmax PC3 PD-L1 overexpressing tumor +block recorded for the compound Cc1c(COc2cc(OCc3cncc(S(C)(=O)=O)c3)c(CN[C@@H](CS(=O)(=O)O)C(=O)NCCP(=O)(O)O)cc2Cl)cccc1-c1cccc(OCc2cn(CCCN3CCN(C(=O)CC[C@H](C(=O)O)N4CCN(CC(=O)O)CCN(CC(=O)O)CC4)CC3)nn2)c1C.[64Cu+2] [[^64Cu]Cu-4]
Result: 1.1
